Cited source for all entries: ChEMBL document CHEMBL1135312

target: Integrin alpha-4/beta-1 (Homo sapiens, UniProt P05556+P13612); assay: Inhibitory binding concentration against VCAM/VLA-4 in ELISA.; type: protein-complex assay
Sequence (P05556 whole entry): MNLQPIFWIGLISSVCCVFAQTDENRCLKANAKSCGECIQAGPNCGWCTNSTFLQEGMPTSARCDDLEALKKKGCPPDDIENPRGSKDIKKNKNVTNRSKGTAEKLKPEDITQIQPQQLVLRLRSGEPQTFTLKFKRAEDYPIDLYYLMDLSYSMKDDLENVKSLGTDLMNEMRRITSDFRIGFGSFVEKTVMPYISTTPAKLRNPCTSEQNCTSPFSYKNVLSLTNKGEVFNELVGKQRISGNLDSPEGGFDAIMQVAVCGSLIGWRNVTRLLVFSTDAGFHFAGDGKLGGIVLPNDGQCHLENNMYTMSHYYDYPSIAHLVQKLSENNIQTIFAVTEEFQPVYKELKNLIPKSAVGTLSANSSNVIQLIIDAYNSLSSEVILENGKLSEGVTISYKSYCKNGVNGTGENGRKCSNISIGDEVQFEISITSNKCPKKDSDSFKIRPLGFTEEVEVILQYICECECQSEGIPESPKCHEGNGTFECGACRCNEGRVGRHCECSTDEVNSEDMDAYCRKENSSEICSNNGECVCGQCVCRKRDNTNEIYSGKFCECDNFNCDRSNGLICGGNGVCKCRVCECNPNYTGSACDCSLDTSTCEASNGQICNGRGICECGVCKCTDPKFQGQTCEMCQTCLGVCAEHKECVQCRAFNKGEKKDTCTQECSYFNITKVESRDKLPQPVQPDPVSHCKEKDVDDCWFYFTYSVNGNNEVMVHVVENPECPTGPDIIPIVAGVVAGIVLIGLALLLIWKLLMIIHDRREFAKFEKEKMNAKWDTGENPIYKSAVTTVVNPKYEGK
Sequence (P13612 whole entry): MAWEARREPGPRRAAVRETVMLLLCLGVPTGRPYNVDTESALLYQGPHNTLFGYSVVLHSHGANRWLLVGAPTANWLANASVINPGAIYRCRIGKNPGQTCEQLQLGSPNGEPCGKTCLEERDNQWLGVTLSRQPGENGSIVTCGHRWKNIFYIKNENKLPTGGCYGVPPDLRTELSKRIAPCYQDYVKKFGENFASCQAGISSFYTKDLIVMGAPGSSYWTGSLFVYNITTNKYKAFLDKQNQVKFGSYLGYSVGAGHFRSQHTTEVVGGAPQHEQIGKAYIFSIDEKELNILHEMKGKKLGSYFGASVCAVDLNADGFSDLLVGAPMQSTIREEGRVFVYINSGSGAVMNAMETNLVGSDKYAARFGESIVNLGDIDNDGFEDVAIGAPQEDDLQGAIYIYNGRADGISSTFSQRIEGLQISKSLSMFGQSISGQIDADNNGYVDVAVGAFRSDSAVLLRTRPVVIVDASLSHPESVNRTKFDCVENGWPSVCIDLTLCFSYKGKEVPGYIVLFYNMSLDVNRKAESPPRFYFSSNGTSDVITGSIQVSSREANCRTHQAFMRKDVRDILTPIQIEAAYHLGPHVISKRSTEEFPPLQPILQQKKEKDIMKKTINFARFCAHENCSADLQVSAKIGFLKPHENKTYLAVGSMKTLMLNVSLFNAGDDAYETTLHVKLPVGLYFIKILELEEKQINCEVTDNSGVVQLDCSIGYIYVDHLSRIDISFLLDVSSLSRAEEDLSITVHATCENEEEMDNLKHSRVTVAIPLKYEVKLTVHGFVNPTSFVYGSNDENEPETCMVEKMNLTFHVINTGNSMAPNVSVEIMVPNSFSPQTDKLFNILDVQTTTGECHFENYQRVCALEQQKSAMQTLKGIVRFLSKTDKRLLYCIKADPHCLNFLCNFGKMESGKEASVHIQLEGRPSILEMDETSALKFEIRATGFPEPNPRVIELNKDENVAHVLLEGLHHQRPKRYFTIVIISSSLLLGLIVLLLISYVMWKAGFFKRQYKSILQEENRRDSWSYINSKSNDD
EXPERIMENTAL READOUT: pIC50
Give bare numbers, as −log10 of the molar value.

As a guide, the following entries are already answered.
>  <CHEM SMILES>
O=C(N[C@@H](Cc1ccc(NC(=O)c2c(Cl)cccc2Cl)cc1)C(=O)O)c1c(F)cccc1F

>  <pIC50>
8.92

$$$$
>  <CHEM SMILES>
Cc1ncccc1C(=O)N[C@@H](Cc1ccc(NC(=O)c2c(Cl)cccc2Cl)cc1)C(=O)O

>  <pIC50>
8.70

$$$$
>  <CHEM SMILES>
Cc1cccc(Cl)c1C(=O)N[C@@H](Cc1ccc(NC(=O)c2c(Cl)cccc2Cl)cc1)C(=O)O

>  <pIC50>
9.52

$$$$
>  <CHEM SMILES>
O=C(N[C@@H](Cc1ccc(NC(=O)c2c(Cl)cccc2Cl)cc1)C(=O)O)c1sccc1Br

>  <pIC50>
8.82

$$$$
>  <CHEM SMILES>
Cc1ccnc(C)c1C(=O)N[C@@H](Cc1ccc(NC(=O)c2c(Cl)cccc2Cl)cc1)C(=O)O

>  <pIC50>
9.05

$$$$

Items follow; give pIC50 for each.
1. CSc1ccccc1C(=O)N[C@@H](Cc1ccc(NC(=O)c2c(Cl)cccc2Cl)cc1)C(=O)O
2. O=C(N[C@@H](Cc1ccc(NC(=O)c2c(Cl)cccc2Cl)cc1)C(=O)O)c1ccccc1Br

A.
1. 9.40
2. 9.31
